settings: in isopropanol, 303.15 K
assay.metric: solubility (mole fraction)

Query string: Tell us which solubility (mole fraction) value is on record for C[C@@H]1O[C@@H](OC[C@H]2O[C@@H](Oc3c(-c4ccc(OCCO)c(OCCO)c4)oc4cc(OCCO)cc(O)c4c3=O)[C@H](O)[C@@H](O)[C@@H]2O)[C@H](O)[C@H](O)[C@H]1O
Result string: 0.000207

----------
details: in n-propanol, 293.15 K
assay.metric: solubility (mole fraction)
Give the figure by itself; no unit, no explanation.

Query string: Tell us which solubility (mole fraction) value is on record for C[C@@H]1O[C@@H](OC[C@H]2O[C@@H](Oc3c(-c4ccc(OCCO)c(OCCO)c4)oc4cc(OCCO)cc(O)c4c3=O)[C@H](O)[C@@H](O)[C@@H]2O)[C@H](O)[C@H](O)[C@H]1O
Result string: 0.000177

----------
settings: in acetone, 303.15 K
assay.metric: solubility (mole fraction)
Give the figure by itself; no unit, no explanation.

Query string: Tell us which solubility (mole fraction) value is on record for C[C@@H]1O[C@@H](OC[C@H]2O[C@@H](Oc3c(-c4ccc(OCCO)c(OCCO)c4)oc4cc(OCCO)cc(O)c4c3=O)[C@H](O)[C@@H](O)[C@@H]2O)[C@H](O)[C@H](O)[C@H]1O
Result string: 5.5e-05

----------
settings: in isobutanol, 303.15 K
assay.metric: solubility (mole fraction)
Give the figure by itself; no unit, no explanation.

Query string: Tell us which solubility (mole fraction) value is on record for C[C@@H]1O[C@@H](OC[C@H]2O[C@@H](Oc3c(-c4ccc(OCCO)c(OCCO)c4)oc4cc(OCCO)cc(O)c4c3=O)[C@H](O)[C@@H](O)[C@@H]2O)[C@H](O)[C@H](O)[C@H]1O
Result string: 9e-05

----------
settings: in sec-butanol, 323.15 K
assay.metric: solubility (mole fraction)

Query string: Tell us which solubility (mole fraction) value is on record for C[C@@H]1O[C@@H](OC[C@H]2O[C@@H](Oc3c(-c4ccc(OCCO)c(OCCO)c4)oc4cc(OCCO)cc(O)c4c3=O)[C@H](O)[C@@H](O)[C@@H]2O)[C@H](O)[C@H](O)[C@H]1O
Result string: 0.000505

----------
conditions: in sec-butanol, 308.15 K
assay.metric: solubility (mole fraction)
Give the figure by itself; no unit, no explanation.

Query string: Tell us which solubility (mole fraction) value is on record for C[C@@H]1O[C@@H](OC[C@H]2O[C@@H](Oc3c(-c4ccc(OCCO)c(OCCO)c4)oc4cc(OCCO)cc(O)c4c3=O)[C@H](O)[C@@H](O)[C@@H]2O)[C@H](O)[C@H](O)[C@H]1O
Result string: 0.000254

----------
conditions: in isobutanol, 298.15 K
assay.metric: solubility (mole fraction)
Give the figure by itself; no unit, no explanation.

Query string: Tell us which solubility (mole fraction) value is on record for C[C@@H]1O[C@@H](OC[C@H]2O[C@@H](Oc3c(-c4ccc(OCCO)c(OCCO)c4)oc4cc(OCCO)cc(O)c4c3=O)[C@H](O)[C@@H](O)[C@@H]2O)[C@H](O)[C@H](O)[C@H]1O
Result string: 7e-05

----------
details: in n-butanol, 303.15 K
assay.metric: solubility (mole fraction)

Query string: Tell us which solubility (mole fraction) value is on record for C[C@@H]1O[C@@H](OC[C@H]2O[C@@H](Oc3c(-c4ccc(OCCO)c(OCCO)c4)oc4cc(OCCO)cc(O)c4c3=O)[C@H](O)[C@@H](O)[C@@H]2O)[C@H](O)[C@H](O)[C@H]1O
Result string: 0.000187

----------
details: in isobutanol, 293.15 K
assay.metric: solubility (mole fraction)
Give the figure by itself; no unit, no explanation.

Query string: Tell us which solubility (mole fraction) value is on record for C[C@@H]1O[C@@H](OC[C@H]2O[C@@H](Oc3c(-c4ccc(OCCO)c(OCCO)c4)oc4cc(OCCO)cc(O)c4c3=O)[C@H](O)[C@@H](O)[C@@H]2O)[C@H](O)[C@H](O)[C@H]1O
Result string: 5.4e-05

----------
settings: in 1,4-dioxane, 293.15 K
assay.metric: solubility (mole fraction)

Query string: Tell us which solubility (mole fraction) value is on record for C[C@@H]1O[C@@H](OC[C@H]2O[C@@H](Oc3c(-c4ccc(OCCO)c(OCCO)c4)oc4cc(OCCO)cc(O)c4c3=O)[C@H](O)[C@@H](O)[C@@H]2O)[C@H](O)[C@H](O)[C@H]1O
Result string: 0.000596

----------
settings: in 1,4-dioxane, 298.15 K
assay.metric: solubility (mole fraction)

Query string: Tell us which solubility (mole fraction) value is on record for C[C@@H]1O[C@@H](OC[C@H]2O[C@@H](Oc3c(-c4ccc(OCCO)c(OCCO)c4)oc4cc(OCCO)cc(O)c4c3=O)[C@H](O)[C@@H](O)[C@@H]2O)[C@H](O)[C@H](O)[C@H]1O
Result string: 0.000724

----------
settings: in isobutanol, 288.15 K
assay.metric: solubility (mole fraction)

Query string: Tell us which solubility (mole fraction) value is on record for C[C@@H]1O[C@@H](OC[C@H]2O[C@@H](Oc3c(-c4ccc(OCCO)c(OCCO)c4)oc4cc(OCCO)cc(O)c4c3=O)[C@H](O)[C@@H](O)[C@@H]2O)[C@H](O)[C@H](O)[C@H]1O
Result string: 4.1e-05

----------
settings: in isopropanol, 288.15 K
assay.metric: solubility (mole fraction)
Give the figure by itself; no unit, no explanation.

Query string: Tell us which solubility (mole fraction) value is on record for C[C@@H]1O[C@@H](OC[C@H]2O[C@@H](Oc3c(-c4ccc(OCCO)c(OCCO)c4)oc4cc(OCCO)cc(O)c4c3=O)[C@H](O)[C@@H](O)[C@@H]2O)[C@H](O)[C@H](O)[C@H]1O
Result string: 9.3e-05

----------
conditions: in n-butanol, 293.15 K
assay.metric: solubility (mole fraction)
Give the figure by itself; no unit, no explanation.

Query string: Tell us which solubility (mole fraction) value is on record for C[C@@H]1O[C@@H](OC[C@H]2O[C@@H](Oc3c(-c4ccc(OCCO)c(OCCO)c4)oc4cc(OCCO)cc(O)c4c3=O)[C@H](O)[C@@H](O)[C@@H]2O)[C@H](O)[C@H](O)[C@H]1O
Result string: 0.000102

----------
conditions: in n-pentanol, 293.15 K
assay.metric: solubility (mole fraction)
Give the figure by itself; no unit, no explanation.

Query string: Tell us which solubility (mole fraction) value is on record for C[C@@H]1O[C@@H](OC[C@H]2O[C@@H](Oc3c(-c4ccc(OCCO)c(OCCO)c4)oc4cc(OCCO)cc(O)c4c3=O)[C@H](O)[C@@H](O)[C@@H]2O)[C@H](O)[C@H](O)[C@H]1O
Result string: 9e-05

----------
conditions: in n-butanol, 318.15 K
assay.metric: solubility (mole fraction)
Give the figure by itself; no unit, no explanation.

Query string: Tell us which solubility (mole fraction) value is on record for C[C@@H]1O[C@@H](OC[C@H]2O[C@@H](Oc3c(-c4ccc(OCCO)c(OCCO)c4)oc4cc(OCCO)cc(O)c4c3=O)[C@H](O)[C@@H](O)[C@@H]2O)[C@H](O)[C@H](O)[C@H]1O
Result string: 0.000382

----------
conditions: in acetone, 293.15 K
assay.metric: solubility (mole fraction)
Give the figure by itself; no unit, no explanation.

Query string: Tell us which solubility (mole fraction) value is on record for C[C@@H]1O[C@@H](OC[C@H]2O[C@@H](Oc3c(-c4ccc(OCCO)c(OCCO)c4)oc4cc(OCCO)cc(O)c4c3=O)[C@H](O)[C@@H](O)[C@@H]2O)[C@H](O)[C@H](O)[C@H]1O
Result string: 3.4e-05

----------
details: in n-propanol, 313.15 K
assay.metric: solubility (mole fraction)

Query string: Tell us which solubility (mole fraction) value is on record for C[C@@H]1O[C@@H](OC[C@H]2O[C@@H](Oc3c(-c4ccc(OCCO)c(OCCO)c4)oc4cc(OCCO)cc(O)c4c3=O)[C@H](O)[C@@H](O)[C@@H]2O)[C@H](O)[C@H](O)[C@H]1O
Result string: 0.000377

----------
conditions: in methanol, 303.15 K
assay.metric: solubility (mole fraction)
Give the figure by itself; no unit, no explanation.

Query string: Tell us which solubility (mole fraction) value is on record for C[C@@H]1O[C@@H](OC[C@H]2O[C@@H](Oc3c(-c4ccc(OCCO)c(OCCO)c4)oc4cc(OCCO)cc(O)c4c3=O)[C@H](O)[C@@H](O)[C@@H]2O)[C@H](O)[C@H](O)[C@H]1O
Result string: 0.00045

----------
conditions: in acetone, 308.15 K
assay.metric: solubility (mole fraction)
Give the figure by itself; no unit, no explanation.

Query string: Tell us which solubility (mole fraction) value is on record for C[C@@H]1O[C@@H](OC[C@H]2O[C@@H](Oc3c(-c4ccc(OCCO)c(OCCO)c4)oc4cc(OCCO)cc(O)c4c3=O)[C@H](O)[C@@H](O)[C@@H]2O)[C@H](O)[C@H](O)[C@H]1O
Result string: 7e-05
